Recorded values, source the supplement of paper PMC10567573.

B1: OAS1 (parent)
chain: LTVYAWERGSMKTHFNTAQGFRTV

- Variants of: B1
- protocol_summary: protein stability index of a GFP-peptide fusion (GPS, HEK-293T) (PSI 1-6); higher = more stable;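 further: lentivirally expressed fusions sorted by FACS into six bins by GFP to DsRed ratio, PSI derived from sequencing read proportions per bin multiplied by bin number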
- measurement_parameters: c terminus: a fixed tail appended
Classification field: Y = protein stability index at or over 3; N = protein stability index under 3.

Illustrative cases are given below, each with its answer.
# mutant_label, category_label
rows = [
    ("R8M", "N"),
    ("M11S", "N"),
    ("T17N", "N"),
    ("A18G", "N"),
    ("N16A", "Y"),
    ("N16M", "Y"),
]

Could you verify whether the entry H14G shows protein stability index of no less than 3?
N

Tell me whether protein stability index is at least 3 here: A5H
N

Reported protein stability index at or above 3? H14P
N
